Biological target: CREB-binding protein (Homo sapiens)
Sequence (Q92793 whole entry): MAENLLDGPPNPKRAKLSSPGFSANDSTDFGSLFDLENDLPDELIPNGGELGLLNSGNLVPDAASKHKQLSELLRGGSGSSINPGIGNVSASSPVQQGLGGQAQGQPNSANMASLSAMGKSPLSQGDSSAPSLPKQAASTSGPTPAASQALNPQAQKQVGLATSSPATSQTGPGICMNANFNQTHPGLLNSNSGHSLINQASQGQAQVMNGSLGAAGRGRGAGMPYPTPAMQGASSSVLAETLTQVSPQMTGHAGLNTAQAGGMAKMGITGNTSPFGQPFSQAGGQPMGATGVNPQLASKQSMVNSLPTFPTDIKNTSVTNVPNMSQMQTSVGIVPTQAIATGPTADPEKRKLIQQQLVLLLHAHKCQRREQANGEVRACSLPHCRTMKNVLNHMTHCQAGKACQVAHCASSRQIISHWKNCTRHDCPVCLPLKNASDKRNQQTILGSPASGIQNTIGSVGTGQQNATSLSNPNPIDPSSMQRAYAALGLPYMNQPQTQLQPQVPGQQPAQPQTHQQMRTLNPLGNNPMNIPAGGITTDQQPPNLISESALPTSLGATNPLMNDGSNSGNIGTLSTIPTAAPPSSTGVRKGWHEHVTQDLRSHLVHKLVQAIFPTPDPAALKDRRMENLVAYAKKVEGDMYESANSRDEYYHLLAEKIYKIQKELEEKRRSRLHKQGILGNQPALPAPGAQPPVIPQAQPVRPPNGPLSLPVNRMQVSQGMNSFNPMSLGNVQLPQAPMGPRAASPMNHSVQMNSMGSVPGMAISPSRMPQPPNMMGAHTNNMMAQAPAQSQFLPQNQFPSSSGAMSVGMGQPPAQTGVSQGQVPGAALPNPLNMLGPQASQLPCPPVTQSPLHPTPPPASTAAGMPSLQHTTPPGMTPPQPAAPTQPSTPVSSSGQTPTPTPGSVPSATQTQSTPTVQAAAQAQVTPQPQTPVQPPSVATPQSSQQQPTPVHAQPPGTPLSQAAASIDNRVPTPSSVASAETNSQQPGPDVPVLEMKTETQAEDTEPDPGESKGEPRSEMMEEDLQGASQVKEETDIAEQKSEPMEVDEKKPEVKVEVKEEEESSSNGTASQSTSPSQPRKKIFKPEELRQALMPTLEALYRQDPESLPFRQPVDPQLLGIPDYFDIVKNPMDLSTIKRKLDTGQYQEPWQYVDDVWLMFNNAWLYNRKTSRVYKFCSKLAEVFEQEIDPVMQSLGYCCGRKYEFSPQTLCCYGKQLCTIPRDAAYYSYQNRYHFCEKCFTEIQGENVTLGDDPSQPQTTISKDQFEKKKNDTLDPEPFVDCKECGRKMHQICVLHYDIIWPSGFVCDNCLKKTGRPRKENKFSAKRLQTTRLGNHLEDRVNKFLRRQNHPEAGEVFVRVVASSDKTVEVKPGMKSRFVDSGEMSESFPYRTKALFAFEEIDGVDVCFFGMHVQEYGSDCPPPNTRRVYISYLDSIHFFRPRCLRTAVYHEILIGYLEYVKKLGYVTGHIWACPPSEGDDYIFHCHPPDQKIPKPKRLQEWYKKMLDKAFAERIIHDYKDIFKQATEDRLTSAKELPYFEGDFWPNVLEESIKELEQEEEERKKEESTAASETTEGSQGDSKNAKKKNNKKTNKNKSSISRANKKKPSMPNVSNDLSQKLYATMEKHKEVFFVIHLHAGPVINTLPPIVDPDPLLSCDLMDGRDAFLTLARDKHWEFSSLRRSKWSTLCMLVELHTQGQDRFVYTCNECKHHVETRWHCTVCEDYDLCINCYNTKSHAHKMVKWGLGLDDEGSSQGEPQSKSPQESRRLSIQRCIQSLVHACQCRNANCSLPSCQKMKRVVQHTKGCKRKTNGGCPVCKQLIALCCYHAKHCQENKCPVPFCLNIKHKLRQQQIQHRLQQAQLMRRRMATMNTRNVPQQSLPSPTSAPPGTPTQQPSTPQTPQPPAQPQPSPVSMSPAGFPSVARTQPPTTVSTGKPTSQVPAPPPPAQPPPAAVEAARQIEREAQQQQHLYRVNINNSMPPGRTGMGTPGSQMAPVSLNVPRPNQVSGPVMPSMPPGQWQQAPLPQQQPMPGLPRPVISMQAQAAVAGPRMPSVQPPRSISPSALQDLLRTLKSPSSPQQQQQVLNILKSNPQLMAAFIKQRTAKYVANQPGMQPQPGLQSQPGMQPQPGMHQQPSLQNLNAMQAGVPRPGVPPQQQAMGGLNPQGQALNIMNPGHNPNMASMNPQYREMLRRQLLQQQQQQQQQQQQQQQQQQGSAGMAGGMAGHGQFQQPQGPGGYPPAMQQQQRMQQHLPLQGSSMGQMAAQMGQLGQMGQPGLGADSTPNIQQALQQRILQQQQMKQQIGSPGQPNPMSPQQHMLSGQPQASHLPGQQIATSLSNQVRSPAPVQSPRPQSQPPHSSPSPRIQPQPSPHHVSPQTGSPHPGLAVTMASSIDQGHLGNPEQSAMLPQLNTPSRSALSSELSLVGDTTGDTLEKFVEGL
Test: Inhibition of GST-tagged CBP BRD (unknown origin) incubated for 30 mins by HTRF assay
Documented pIC50 across a set of molecules
pIC50 is a log-scale quantity: -log10 of the concentration expressed in molar.

# MOLECULE, pIC50
measured = [
    ("CNC(=O)N1CCCc2ccc(NC(=O)c3cccc(-c4ccccc4)c3)cc21", 5.08),
    ("CNC(=O)N1CCCc2ccc(NC(=O)c3cccc(-c4ccncc4)c3)cc21", 7.20),
    ("COC(=O)N1CCCc2ccc(NC(=O)C3CC=CCC3C(=O)O)cc21 (centres undefined)", 5.64),
]

Next, consider the following molecule.
Give the value of pIC50 reported for the following: CNC(=O)N1CCCc2ccc(NC(=O)c3ccccc3-c3ccccc3)cc21
6.67

====

Target: Bromodomain-containing protein 4 (Homo sapiens)
Test: Inhibition of BRD4 BD2 (unknown origin) by ALPHAScreen assay
Documented IC50 across a set of molecules
Please state the number and follow it with the unit.

# TEST_SMILES, IC50
records = [
    ("C[C@@H]1CC(=O)Nc2cccc(-c3ccc4c(c3)c(-c3cnn(C)c3)nn4C)c2N1", "18.8 µM"),
]

Next, consider the following molecule.
// fetch IC50; item: CNC(=O)N1CCCc2ccc(NC(=O)c3ccc(-c4cc[nH]n4)cc3)cc21 ; system: Bromodomain-containing protein 4 (Homo sapiens)
19 µM

====

Documented pIC50 across a set of molecules
Target: UniProt:Q92793
Assay: Inhibition of CBP BRD (unknown origin) by TR-FRET assay
pIC50 is a log-scale quantity: -log10 of the concentration expressed in molar.

// fetch pIC50; item: CNC(=O)N1CCCc2ccc(NC(=O)c3ccc(-c4ccncc4)cc3)cc21 ; system: UniProt:Q92793
7.05

// fetch pIC50; item: CNC(=O)N1CCCc2ccc(NC(=O)c3ccc(-c4cnn(C(C)=O)c4)cc3)cc21 ; system: UniProt:Q92793
7.07

// fetch pIC50; item: CNC(=O)N1CCCc2ccc(NC(=O)c3ccc(-c4ccn(C)n4)cc3)cc21 ; system: UniProt:Q92793
7.40

// fetch pIC50; item: CNC(=O)N1CCCc2ccc(NC(=O)c3cccc(-c4ccn(S(C)(=O)=O)n4)c3)cc21 ; system: UniProt:Q92793
6.99

// fetch pIC50; item: CNC(=O)N1CCCc2ccc(NC(=O)c3ccc(-c4cc[nH]n4)cc3)cc21 ; system: UniProt:Q92793
7.71

// fetch pIC50; item: CNC(=O)N1CCCc2ccc(NC(=O)c3ccc(-c4cnn(S(C)(=O)=O)c4)cc3)cc21 ; system: UniProt:Q92793
7.03

// fetch pIC50; item: CNC(=O)N1CCCc2ccc(NC(=O)c3cccc(-c4cnn(C(C)=O)c4)c3)cc21 ; system: UniProt:Q92793
7.12

// fetch pIC50; item: CNC(=O)N1CCCc2ccc(NC(=O)c3cccc(-c4ccn(C)n4)c3)cc21 ; system: UniProt:Q92793
7.34

// fetch pIC50; item: CNC(=O)N1CCCc2ccc(NC(=O)c3ccc(-c4ccccn4)cc3)cc21 ; system: UniProt:Q92793
6.99

// fetch pIC50; item: CNC(=O)N1CCCc2ccc(NC(=O)c3cccc(-c4ccn(C(C)=O)n4)c3)cc21 ; system: UniProt:Q92793
7.02

// fetch pIC50; item: CNC(=O)N1CCCc2ccc(NC(=O)c3ccc(-c4ccn(C(C)=O)n4)cc3)cc21 ; system: UniProt:Q92793
7.28

// fetch pIC50; item: CNC(=O)N1CCCc2ccc(NC(=O)c3cccc(-c4cc[nH]n4)c3)cc21 ; system: UniProt:Q92793
7.03

// fetch pIC50; item: CNC(=O)N1CCCc2ccc(NC(=O)c3cccc(-c4cn[nH]c4)c3)cc21 ; system: UniProt:Q92793
7.04

====

Molecular target: CREB-binding protein (Homo sapiens)
Assay: Inhibition of CBP BRD (unknown origin) by TR-FRET assay
pIC50: −log10 of the molar value.
Hi, to clarify the labels: yes (1) covers pIC50 from 7 upward, no (0) covers anything below 7.

# TEST_SMILES, GROUP
rows = [
    ("CNC(=O)N1CCCc2ccc(NC(=O)c3ccc(-c4cn[nH]c4)cc3)cc21", "yes (1)"),
]

Is pIC50 at least 7? Consider CNC(=O)N1CCCc2ccc(NC(=O)c3ccc(-c4ccccc4)cc3)cc21
no (0)

Is pIC50 at least 7? Consider CNC(=O)N1CCCc2ccc(NC(=O)c3ccc(-c4cccnc4)cc3)cc21
yes (1)

Is pIC50 at least 7? Consider CNC(=O)N1CCCc2ccc(NC(=O)c3ccc(-c4cnn(C)c4)cc3)cc21
yes (1)

Is pIC50 at least 7? Consider CNC(=O)N1CCCc2ccc(NC(=O)c3cccc(-c4cnn(C)c4)c3)cc21
yes (1)

Is pIC50 at least 7? Consider CNC(=O)N1CCCc2ccc(NC(=O)c3cccc(-c4cnn(S(C)(=O)=O)c4)c3)cc21
no (0)

Each recorded value in this set is attributed to ChEMBL document CHEMBL4699476.
